# MEASUREMENT NOTES: inhibitors of the yeast RAM network, pilot screen, dse1pr::URA3 reporter, 5-FOA selection (AID 869);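 further: 0% = DMSO wells with no growth and 100% = 10 µM 1-NA-PP1 with full growth; RAM network block rescues cells from 5-FOA so hits raise OD615 growth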
# APPLIED CONDITIONS: S. cerevisiae dse1pr::URA3 5-FOA growth, OD615, 2 d; at 10 µM; hits give high values; strain carries analog-sensitive mutant Cbk1 kinase
METRIC NAME: inhibition (%)

COMPOUND: COc1ccccc1C(=O)Nc1cc(-c2nn3c(C)nnc3s2)ccc1C
REPORTED: 1.22

COMPOUND: Cc1nc(S(=O)(=O)c2ccc(Cl)cc2)c(NCc2ccccc2)o1
REPORTED: 2.39

COMPOUND: COc1ccccc1-c1nc2n(n1)C(c1ccccc1Cl)C(C(N)=O)=C(C)N2 (configuration not stated)
REPORTED: -0.085

COMPOUND: Cc1c(-c2ccco2)[n+](=O)c2c(n1[O-])CCCCC2
REPORTED: 1.32

COMPOUND: CN1CCCN(Cc2ccccc2C(F)(F)F)CC1
REPORTED: 1.25

COMPOUND: CS(=O)(=O)N(Cc1ccc(C(=O)NCc2ccco2)cc1)c1ccccc1
REPORTED: -0.1

COMPOUND: COc1cc2c(cc1OC)CN(S(C)(=O)=O)CC2
REPORTED: 1.33

COMPOUND: C=CCSc1nnc2c(n1)OC(c1cccnc1)Nc1ccccc1-2 (configuration not stated)
REPORTED: 1.75

COMPOUND: Cc1ccc(S(=O)(=O)N2CCN(C(=O)CN3CCCC3)C2)cc1
REPORTED: 1.62

COMPOUND: Cc1ccccc1NC(=O)C1CC(Cl)=CCC1C(=O)O (configuration not stated)
REPORTED: 1.52

COMPOUND: COc1cc(C)c(C(C)C)cc1S(=O)(=O)n1cnc(C)c1
REPORTED: 0.425

COMPOUND: Cc1nn(-c2ccccc2)c2sc(C(=O)OCN3C(=O)c4ccccc4C3=O)cc12
REPORTED: 2.55

COMPOUND: CC(C)CC(NC(=O)C1CCCCC1)C(=O)NCc1ccccn1 (configuration not stated)
REPORTED: 1.04

COMPOUND: CC(C)N(Cc1ccccc1)C(=O)c1cnc2n(c1=O)CCS2
REPORTED: 1.28

COMPOUND: COc1cc2[nH]c(=O)n(CCC(=O)N3CCN(c4cccc(C)c4C)CC3)c(=O)c2cc1OC
REPORTED: 0.615

COMPOUND: O=C(Cn1ncc2c(=O)oc3ccccc3c21)N1CCC(N2CCCCC2)CC1
REPORTED: 1.65

COMPOUND: CC1(C)Cc2nc3sc4c(=O)n(CC(=O)NCc5ccco5)cnc4c3cc2CO1
REPORTED: 0.68

COMPOUND: O=C(Nc1ccccc1C1CC1)c1cccs1
REPORTED: 1.16

COMPOUND: COc1ccc(CNC(=O)c2cnc3scc(C)n3c2=O)cc1
REPORTED: 0.925

COMPOUND: Cc1ccc(N2CC(C(=O)Nc3cccc(F)c3)CC2=O)cc1 (configuration not stated)
REPORTED: -0.185

COMPOUND: Cc1cc(C)cc(N(CC(=O)N2CCN(Cc3ccccc3)CC2)S(=O)(=O)c2c(C)noc2C)c1
REPORTED: 1.84

COMPOUND: Cn1c(Cn2c(=O)sc3ccccc32)nnc1SCC(=O)NCc1ccccc1Cl
REPORTED: 0.62
